# ASSAY: Permeability coefficient of the compound across blood brain barrier at pH 7.4 incubated for 4 hrs by PAMPA assay
# Format: ADME
# EXPERIMENTAL_CONTEXT: read-out: permeability
MEASURED_PARAMETER: Papp at 4 h

[[record]]
smi = "CN1C(=S)N(C2CCCCC2)C(=O)/C1=C\\c1ccc(N(C)CCO)cc1"
value_observed = "13.6 ×10⁻⁶ cm/s"


====

# ASSAY: Toxicity in male ICR mouse assessed as survival rate at 100 mg/kg, iv administered as single dose for 14 days
# Format: organism-based
# EXPERIMENTAL_CONTEXT: in vivo, time 14 day
MEASURED_PARAMETER: survival at 336 h (%)

[[record]]
smi = "CN1C(=S)N(C2CCCCC2)C(=O)/C1=C\\c1ccc(N(C)CCO)cc1"
measured_parameter = "survival at 336 h"
value_observed = 100

